target: E. coli GUS (Escherichia coli)
pIC50: −log10 of the molar value.
Mark true for reported pIC50 of 6 or greater; mark false for anything smaller.

Example entries begin here.
>>> answer_label("C1CCc2c(c(N3CCOCC3)nc3sc4c(N5CCCNCC5)nnnc4c23)C1")
"false"
>>> answer_label("C1CCc2c(c(N3CCNCC3)nc3sc4c(N5CCNCC5)nnnc4c23)C1")
"true"
>>> answer_label("CNc1nc(N2CCNCC2)c2sc3nc(N(C)C)ccc3c2n1")
"true"

Then there is this compound:
Data request: Hello, I need to know if OCCNc1nc(N2CCNCC2)c2sc3nc(-c4ccccc4)ccc3c2n1 has measured pIC50 not below 6. Thanks!
Data returned: true

====

target: E. coli GUS (Escherichia coli, UniProt P05804)
Sequence (P05804 whole entry): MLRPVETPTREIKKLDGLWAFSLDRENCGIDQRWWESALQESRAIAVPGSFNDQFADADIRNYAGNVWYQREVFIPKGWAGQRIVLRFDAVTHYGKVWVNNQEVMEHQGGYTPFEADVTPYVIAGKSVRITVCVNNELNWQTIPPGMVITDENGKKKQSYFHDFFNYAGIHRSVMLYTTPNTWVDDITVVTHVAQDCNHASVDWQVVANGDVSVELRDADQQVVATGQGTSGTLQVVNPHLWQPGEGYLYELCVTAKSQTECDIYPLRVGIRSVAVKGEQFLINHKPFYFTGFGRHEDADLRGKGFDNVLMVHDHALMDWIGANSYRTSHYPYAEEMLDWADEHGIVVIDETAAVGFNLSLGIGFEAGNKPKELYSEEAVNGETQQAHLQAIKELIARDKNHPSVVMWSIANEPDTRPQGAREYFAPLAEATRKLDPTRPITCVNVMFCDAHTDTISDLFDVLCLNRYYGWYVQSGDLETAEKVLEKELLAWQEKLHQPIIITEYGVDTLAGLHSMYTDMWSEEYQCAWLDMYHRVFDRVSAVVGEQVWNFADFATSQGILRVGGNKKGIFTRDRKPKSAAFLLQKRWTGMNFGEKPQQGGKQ
Binarize IC50 at 2000 nM; below is true, at or above is false.

Example entries begin here.
>>> answer_label("CNc1nc(N2CCNCC2)c2sc3nc(-c4ccccc4)ccc3c2n1 [Compound 24]")
"true"
>>> answer_label("C[C@@H]1CN(c2nnnc3c2sc2nc(N4CCOCC4)c4c(c23)CCCC4)CCN1 [Compound 6]")
"false"
>>> answer_label("CNc1nc(N2CCNCC2)c2sc3ncccc3c2n1 [Compound 31]")
"true"
>>> answer_label("C1CCc2c(c(N3CCOCC3)nc3sc4c(NC5CCNCC5)nnnc4c23)C1 [Compound 4]")
"false"
>>> answer_label("CN1CCN(c2nnnc3c2sc2nc(N4CCOCC4)c4c(c23)CCCC4)CC1 [Compound 2]")
"false"

Data request: Confirm or reject: IC50 of C1CCc2c(c(N3CCOCC3)nc3sc4c(N5CC6CC5CN6)nnnc4c23)C1 (stereo not drawn) [Compound 5] lies strictly below 2000 nM
Data returned: false

Data request: Confirm or reject: IC50 of CN(C)c1ccc2c(n1)sc1c(N3CCNCC3)nnnc12 [Compound 27] lies strictly below 2000 nM
Data returned: true

Data request: Confirm or reject: IC50 of c1ccc(CNc2nc3sc4c(N5CCNCC5)nnnc4c3c3c2CCCC3)cc1 [Compound 17] lies strictly below 2000 nM
Data returned: true

Data request: Confirm or reject: IC50 of NCCNc1nnnc2c1sc1nc(N3CCOCC3)c3c(c12)CCCC3 [Compound 9] lies strictly below 2000 nM
Data returned: false
